- method.description: Miscibility with solvents, visual evaluation at 5 wt %
- Format: physicochemical
- Design: key: ⊚: dissolves at room temperature; ◯: dissolves when heated for 5 minutes at 40° C.; Δ: dissolves under heating, but cooling precipitates crystals; X: does not dissolve
- measurement.conditions: complex added at 5 wt %
readout.type: Miscibility, Toluene

INSERT INTO assay_data (compound, readout_type, measurement) VALUES
  ('O=C(C=C([O-])C(F)(F)F)C(F)(F)F.O=C(C=C([O-])C(F)(F)F)C(F)(F)F.O=C(C=C([O-])C(F)(F)F)C(F)(F)F.[Nd+3] [Nd(HFA)3, reference compound]', 'Miscibility, Toluene', 'X'),
  ('O=P(c1ccccc1)(c1ccccc1)c1ccccc1.O=P(c1ccccc1)(c1ccccc1)c1ccccc1.O=P(c1ccccc1)(c1ccccc1)c1ccccc1.O=P(c1ccccc1)(c1ccccc1)c1ccccc1.O=P(c1ccccc1)(c1ccccc1)c1ccccc1.O=P(c1ccccc1)(c1ccccc1)c1ccccc1.O=P(c1ccccc1)(c1ccccc1)c1ccccc1.O=P(c1ccccc1)(c1ccccc1)c1ccccc1.O=S(=O)([N-]S(=O)(=O)C(F)(F)F)C(F)(F)F.O=S(=O)([N-]S(=O)(=O)C(F)(F)F)C(F)(F)F.O=S(=O)([N-]S(=O)(=O)C(F)(F)F)C(F)(F)F.[Yb+3] [Yb(PMS)3(TPPO)8]', 'Miscibility, Toluene', '◯'),
  ('O=S(=O)([N-]S(=O)(=O)C(F)(F)F)C(F)(F)F.O=S(=O)([N-]S(=O)(=O)C(F)(F)F)C(F)(F)F.O=S(=O)([N-]S(=O)(=O)C(F)(F)F)C(F)(F)F.O=S(c1ccccc1)c1ccccc1.O=S(c1ccccc1)c1ccccc1.O=S(c1ccccc1)c1ccccc1.O=S(c1ccccc1)c1ccccc1.O=S(c1ccccc1)c1ccccc1.O=S(c1ccccc1)c1ccccc1.O=S(c1ccccc1)c1ccccc1.O=S(c1ccccc1)c1ccccc1.[Tb+3] [Tb(PMS)3(DPSO)8]', 'Miscibility, Toluene', '◯');

* * *

- method.description: Miscibility with solvents, visual evaluation at 5 wt %
- Assay type: physicochemical
- Set-up: key: ⊚: dissolves at room temperature; ◯: dissolves when heated for 5 minutes at 40° C.; Δ: dissolves under heating, but cooling precipitates crystals; X: does not dissolve
- measurement.conditions: complex added at 5 wt %
readout.type: Miscibility, Chloroform

INSERT INTO measurements (compound, readout_type, measurement) VALUES
  ('O=S(=O)([N-]S(=O)(=O)C(F)(F)F)C(F)(F)F.O=S(=O)([N-]S(=O)(=O)C(F)(F)F)C(F)(F)F.O=S(=O)([N-]S(=O)(=O)C(F)(F)F)C(F)(F)F.[Eu+3] [Eu(PMS)3, reference compound]', 'Miscibility, Chloroform', 'X'),
  ('O=S(=O)([N-]S(=O)(=O)C(F)(F)F)C(F)(F)F.O=S(=O)([N-]S(=O)(=O)C(F)(F)F)C(F)(F)F.O=S(=O)([N-]S(=O)(=O)C(F)(F)F)C(F)(F)F.[Nd+3].c1cnc2c(c1)ccc1cccnc12.c1cnc2c(c1)ccc1cccnc12.c1cnc2c(c1)ccc1cccnc12.c1cnc2c(c1)ccc1cccnc12 [Nd(PMS)3(Phen)m]', 'Miscibility, Chloroform', 'Δ');

* * *

- method.description: Luminescence quantum yield and luminescence intensity in solution
- Format: physicochemical
- measurement.conditions: acetonitrile solution, europium ion 0.05 mol/L, excitation 465 nm, luminescence 612 nm
- Experimental: The intensity of luminescence and the luminescence quantum yield, the quotient of dividing the number of photons emitted from a sample by the number of photons absorbed into the sample, were measured with an SS-25 from JASCO Corporation. […] The solutions prepared in Examples 12 to 14 and Comparative Examples 7 to 9 and Comparative Example B were measured for luminescence intensity at the respective maximum luminescence wavelengths. […]
readout.type: Luminescence quantum yield (%)

INSERT INTO measurements (molecule, readout_type, unit_symbol, measurement) VALUES
  ('O=C(C=C([O-])C(F)(F)F)C(F)(F)F.O=C(C=C([O-])C(F)(F)F)C(F)(F)F.O=C(C=C([O-])C(F)(F)F)C(F)(F)F.[Eu+3] [Eu(HFA)3, reference compound]', 'Luminescence quantum yield', '%', 8.0),
  ('O=S(=O)([N-]S(=O)(=O)C(F)(F)F)C(F)(F)F.O=S(=O)([N-]S(=O)(=O)C(F)(F)F)C(F)(F)F.O=S(=O)([N-]S(=O)(=O)C(F)(F)F)C(F)(F)F.[Eu+3] [Eu(PMS)3, reference compound]', 'Luminescence quantum yield', '%', 5.0),
  ('O=S(=O)([N-]S(=O)(=O)C(F)(F)F)C(F)(F)F.O=S(=O)([N-]S(=O)(=O)C(F)(F)F)C(F)(F)F.O=S(=O)([N-]S(=O)(=O)C(F)(F)F)C(F)(F)F.[Eu+3].c1cnc2c(c1)ccc1cccnc12.c1cnc2c(c1)ccc1cccnc12.c1cnc2c(c1)ccc1cccnc12.c1cnc2c(c1)ccc1cccnc12 [Eu(PMS)3(Phen)m]', 'Luminescence quantum yield', '%', 5.1),
  ('O=P(c1ccccc1)(c1ccccc1)c1ccccc1.O=P(c1ccccc1)(c1ccccc1)c1ccccc1.O=P(c1ccccc1)(c1ccccc1)c1ccccc1.O=P(c1ccccc1)(c1ccccc1)c1ccccc1.O=P(c1ccccc1)(c1ccccc1)c1ccccc1.O=P(c1ccccc1)(c1ccccc1)c1ccccc1.O=P(c1ccccc1)(c1ccccc1)c1ccccc1.O=P(c1ccccc1)(c1ccccc1)c1ccccc1.O=S(=O)([N-]S(=O)(=O)C(F)(F)F)C(F)(F)F.O=S(=O)([N-]S(=O)(=O)C(F)(F)F)C(F)(F)F.O=S(=O)([N-]S(=O)(=O)C(F)(F)F)C(F)(F)F.[Eu+3] [Eu(PMS)3(TPPO)8]', 'Luminescence quantum yield', '%', 5.6),
  ('O=S(=O)([N-]S(=O)(=O)C(F)(F)F)C(F)(F)F.O=S(=O)([N-]S(=O)(=O)C(F)(F)F)C(F)(F)F.O=S(=O)([N-]S(=O)(=O)C(F)(F)F)C(F)(F)F.O=S(c1ccccc1)c1ccccc1.O=S(c1ccccc1)c1ccccc1.O=S(c1ccccc1)c1ccccc1.O=S(c1ccccc1)c1ccccc1.O=S(c1ccccc1)c1ccccc1.O=S(c1ccccc1)c1ccccc1.O=S(c1ccccc1)c1ccccc1.O=S(c1ccccc1)c1ccccc1.[Eu+3] [Eu(PMS)3(DPSO)8]', 'Luminescence quantum yield', '%', 32.0);
